meta.source: paper PMC8612984

# subjectOfTest: T1, C1r-CCP2-SP, recombinant autoactivated domain truncation of human C1r (human, UniProt P00736 375-703)
# T1 sequence: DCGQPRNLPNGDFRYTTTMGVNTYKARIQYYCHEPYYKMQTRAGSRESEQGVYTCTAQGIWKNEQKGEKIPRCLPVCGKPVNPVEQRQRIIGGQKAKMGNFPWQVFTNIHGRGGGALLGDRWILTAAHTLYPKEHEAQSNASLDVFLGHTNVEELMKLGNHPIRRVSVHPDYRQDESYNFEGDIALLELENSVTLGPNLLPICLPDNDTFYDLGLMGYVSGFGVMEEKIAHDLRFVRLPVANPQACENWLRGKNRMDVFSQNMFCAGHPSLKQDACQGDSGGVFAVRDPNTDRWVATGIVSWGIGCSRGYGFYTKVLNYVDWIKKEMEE
# protocolNotes: SPR
measurementName: kon
Param answer (str): number followed by unit.

Consider the reported kon for these binders:
BBK32-C T242A-Y245A (domain or fragment, B. burgdorferi B31, UniProt O50835 206-348, looked up) SNRYQSYLEGVKYNVDSAIQTITKIYNTYTLFSTKLAQMASTRLDNFAKAKAKEEAAKFTKEDLEKNFKTLLNYIQVSVKTAANFVYINDTHAKRKLENIEAEIKTLIAKIKEQSNLYEAYKAIVTSILLMRDSLKEVQGIID ... 210000 M⁻¹ s⁻¹
BBK32-C K327A (domain or fragment, B. burgdorferi B31, UniProt O50835 206-348, looked up) SNRYQSYLEGVKYNVDSAIQTITKIYNTYTLFSTKLTQMYSTRLDNFAKAKAKEEAAKFTKEDLEKNFKTLLNYIQVSVKTAANFVYINDTHAKRKLENIEAEIKTLIAKIKEQSNLYEAYAAIVTSILLMRDSLKEVQGIID ... 97000 M⁻¹ s⁻¹
BBK32-C E324A (domain or fragment, B. burgdorferi B31, UniProt O50835 206-348, looked up) SNRYQSYLEGVKYNVDSAIQTITKIYNTYTLFSTKLTQMYSTRLDNFAKAKAKEEAAKFTKEDLEKNFKTLLNYIQVSVKTAANFVYINDTHAKRKLENIEAEIKTLIAKIKEQSNLYAAYKAIVTSILLMRDSLKEVQGIID ... 200000 M⁻¹ s⁻¹
BBK32-C Y323A (domain or fragment, B. burgdorferi B31, UniProt O50835 206-348, looked up) SNRYQSYLEGVKYNVDSAIQTITKIYNTYTLFSTKLTQMYSTRLDNFAKAKAKEEAAKFTKEDLEKNFKTLLNYIQVSVKTAANFVYINDTHAKRKLENIEAEIKTLIAKIKEQSNLAEAYKAIVTSILLMRDSLKEVQGIID ... 180000 M⁻¹ s⁻¹
BBK32-C T239A (domain or fragment, B. burgdorferi B31, UniProt O50835 206-348, looked up) SNRYQSYLEGVKYNVDSAIQTITKIYNTYTLFSAKLTQMYSTRLDNFAKAKAKEEAAKFTKEDLEKNFKTLLNYIQVSVKTAANFVYINDTHAKRKLENIEAEIKTLIAKIKEQSNLYEAYKAIVTSILLMRDSLKEVQGIID ... 260000 M⁻¹ s⁻¹

Please look at the following binder next.
Item under review: BBK32-C L236A (domain or fragment, B. burgdorferi B31, UniProt O50835 206-348, looked up) SNRYQSYLEGVKYNVDSAIQTITKIYNTYTAFSTKLTQMYSTRLDNFAKAKAKEEAAKFTKEDLEKNFKTLLNYIQVSVKTAANFVYINDTHAKRKLENIEAEIKTLIAKIKEQSNLYEAYKAIVTSILLMRDSLKEVQGIID . Reported kon? 230000 M⁻¹ s⁻¹
